For each entry below, report its Kd value.
# systemTested: soluble HLA-A*02:01 molecules (purified MHC with human β2-microglobulin) (human)
# protocolText: competition with radiolabeled standard peptide for soluble HLA-A*02:01

GIFEDRAPV (modifications not checked) [gB183-191 peptide (HSV-1 glycoprotein B residues 183-191, …)]
> 500 nM

Now turn to the next binder.
Query block: Give the value of Kd reported for the following: NLLTTPKFT (modifications not checked) [gB342-350 peptide (HSV-1 glycoprotein B residues 342-350, …)]
Result block: > 500 nM

Data provenance is patent US20170065713A1.
